Where do these numbers come from? They come from BigSolDB 2.1.

# experimental setup: in isopropanol, 298.15 K
readout kind: solubility (mole fraction)
Give the figure by itself; no unit, no explanation.

// query Need solubility (mole fraction) of COc1ccc(Cl)cc1C(=O)NCCc1ccc(S(=O)(=O)NC(=O)NC2CCCCC2)cc1 , thanks.
// result 0.000162

###

# experimental setup: in ethanol, 318.15 K
readout kind: solubility (mole fraction)
Give the figure by itself; no unit, no explanation.

// query Need solubility (mole fraction) of COc1ccc(Cl)cc1C(=O)NCCc1ccc(S(=O)(=O)NC(=O)NC2CCCCC2)cc1 , thanks.
// result 0.000865

###

# experimental setup: in acetonitrile, 318.15 K
readout kind: solubility (mole fraction)
Give the figure by itself; no unit, no explanation.

// query Need solubility (mole fraction) of COc1ccc(Cl)cc1C(=O)NCCc1ccc(S(=O)(=O)NC(=O)NC2CCCCC2)cc1 , thanks.
// result 0.000418
